These measurements were taken from ChEMBL document CHEMBL1156824.

Organism: Homo sapiens
assay.method.text: Fraction escaping hepatic elimination in human
experimental.conditions: in vivo
Assignment: determine reported Fh for the given compounds.
Give bare numbers.

[[record]]
compound = "CN1C(C(=O)Nc2ccccn2)=C(O)c2sccc2S1(=O)=O"
quantity = "Fh"
measured_number = 1

[[record]]
compound = "CCCc1cc(=O)[nH]c(=S)[nH]1"
quantity = "Fh"
measured_number = 0.87

[[record]]
compound = "CCc1cccc2cc(C(O)CNC(C)(C)C)oc12 (stereo not drawn)"
quantity = "Fh"
measured_number = 0.61

[[record]]
compound = "O=C1NC(=O)C(c2ccccc2)(c2ccccc2)N1"
quantity = "Fh"
measured_number = 0.98

[[record]]
compound = "CCCCc1oc2ccccc2c1C(=O)c1cc(I)c(OCCN(CC)CC)c(I)c1"
quantity = "Fh"
measured_number = 0.92


Would you be so kind as to report Fh for each listed record?
1. CNCCCN1c2ccccc2CCc2ccccc21
2. Nc1ccc(S(=O)(=O)Nc2ncccn2)cc1
3. CCCCNC(=O)NS(=O)(=O)c1ccc(C)cc1 [TOLBUTAMIDE]
4. CC(C)n1c(/C=C/C(O)CC(O)CC(=O)O)c(-c2ccc(F)cc2)c2ccccc21 (stereo not drawn)
5. CN/C(=N/CCSCc1nc[nH]c1C)NC#N

0.53
0.99
0.99
0.3
0.99

---

Species on record: Homo sapiens
assay.method.text: Hepatic clearance in human
experimental.conditions: in vivo
Param threshold (0.9 mL/min/kg) applies to CL; output T when value >= threshold, F when value < threshold.

[[record]]
molecule = "N[C@@H](CC(=O)N1CCn2c(nnc2C(F)(F)F)C1)Cc1cc(F)c(F)cc1F"
class = "T"


# bool: CL of CCC(C)n1ncn(-c2ccc(N3CCN(c4ccc(OCC5COC(Cn6cncn6)(c6ccc(Cl)cc6Cl)O5)cc4)CC3)cc2)c1=O (stereo unspecified) >= 0.9 mL/min/kg T

# bool: CL of O=C1NC(=O)C(c2ccccc2)(c2ccccc2)N1 >= 0.9 mL/min/kg F

---

System: Homo sapiens
assay.method.text: Oral bioavailability in human
experimental.conditions: in vivo
quantity: F_fraction

[[record]]
compound = "Nc1c(CC(=O)O)cccc1C(=O)c1ccc(Br)cc1 [BROMFENAC]"
result = 0.67

[[record]]
compound = "CC(C)NCC(O)COc1ccc(CCOCC2CC2)cc1 (stereo unspecified) [BETAXOLOL]"
result = 0.89

[[record]]
compound = "CN1C(C(=O)Nc2ccccn2)=C(O)c2sccc2S1(=O)=O [TENOXICAM]"
result = 1

[[record]]
compound = "CC(C)NCC(O)c1ccc(NS(C)(=O)=O)cc1 (stereo unspecified) [SOTALOL]"
result = 0.95

[[record]]
compound = "CN(C)c1ccc(O)c2c1C[C@H]1C[C@H]3[C@H](N(C)C)C(O)=C(C(N)=O)C(=O)[C@@]3(O)C(O)=C1C2=O [MINOCYCLINE]"
result = 1


Switching to the query record.
Fill blank: measured F_fraction of the compound CCCCc1nc(Cl)c(CO)n1Cc1ccc(-c2ccccc2-c2nn[nH]n2)cc1 [LOSARTAN] is ____. 0.36

---

Species: Homo sapiens
assay.method.text: Fraction escaping hepatic elimination in human
experimental.conditions: in vivo
quantity: Fh

[[record]]
compound = "CNCCC=C1c2ccccc2CCc2ccccc21 [NORTRIPTYLINE]"
result = 0.57

[[record]]
compound = "CC[C@H](C)C(=O)O[C@H]1C[C@@H](C)C=C2C=C[C@H](C)[C@H](CC[C@@H]3C[C@@H](O)CC(=O)O3)[C@H]21 [LOVASTATIN]"
result = 0.72

[[record]]
compound = "Clc1ccc2nsnc2c1NC1=NCCN1 [TIZANIDINE]"
result = 0.54

[[record]]
compound = "O=C(O)c1cn(C2CC2)c2cc(N3CCNCC3)c(F)cc2c1=O [CIPROFLOXACIN]"
result = 0.94

[[record]]
compound = "CN(C)C(=N)N=C(N)N [METFORMIN]"
result = 1


Would you be so kind as to report Fh for each listed record?
1. O=C(O)Cc1ccccc1Nc1c(Cl)cccc1Cl [DICLOFENAC]
2. CO[C@H]1/C=C/O[C@@]2(C)Oc3c(C)c(O)c4c(c3C2=O)C2=NC3(CCN(CC(C)C)CC3)NC2=C(NC(=O)/C(C)=C\C=C\[C@H](C)[C@H](O)[C@@H](C)[C@@H](O)[C@@H](C)[C@H](OC(C)=O)[C@@H]1C)C4=O [RIFABUTIN]
3. O=P1(N(CCCl)CCCl)NCCCO1 (stereo not drawn) [CYCLOPHOSPHAMIDE ANHYDROUS]

0.85
0.91
0.96
